# System: TEL-JAK1-BaF3 (stably expressing JAK1 kinase)
# testSummary: Cell proliferation, Cell Titer-Glo, TEL-JAK1-BaF3
# Type: cell-based
# experimentalConditions: Mus musculus; incubated for 72 hours
# maps each entry to its log10 of IC50
Record value = log10 of IC50 given in nM.

Below, each entry is followed by its recorded log10 of IC50 result.
NC(=O)CC[C@@H](N)C(=O)N1CCC[C@@H](n2nc(-c3ccc(Oc4ccccc4)cc3)c3c(N)ncnc32)C1 [Compound 57]; 3.67
CN(C)CC(=O)N1CC[C@@H](n2nc(-c3ccc(Oc4ccccc4)cc3)c3c(N)ncnc32)C1 [Compound 65]; 2.95
CC(C)C[C@@H](N)C(=O)N1CCC[C@@H](n2nc(-c3ccc(Oc4ccccc4)cc3)c3c(N)ncnc32)C1 [Compound 27]; 3.34
CC[C@@H](C)[C@@H](N)C(=O)N1CCC[C@@H](n2nc(-c3ccc(Oc4ccccc4)cc3)c3c(N)ncnc32)C1 [Compound 25]; 3.52
Nc1ncnc2c1c(-c1ccc(Oc3ccccc3)cc1)nn2[C@@H]1CCCN(C(=O)[C@H](N)Cc2c[nH]cn2)C1 [Compound 7]; 2.57

API: the following record is the query input.
Name the reported log10 of IC50 value associated with the compound CC(C)C[C@@H](N)C(=O)N1CC[C@@H](n2nc(-c3ccc(Oc4ccccc4)cc3)c3c(N)ncnc32)C1 [Compound 28]
2.96
